Each entry below carries its recorded Enzymatic Emax (%).
target-of-assay: recombinant human Meningioma Expressed Antigen 5 (MGEA5), also referred to as O-GlcNAcase (OGA) (Homo sapiens, UniProt O60502)
Construct: Full length OGA enzyme was purchased at OriGene (cat # TP322411); purchased OriGene TP322411
Sequence (O60502 whole entry): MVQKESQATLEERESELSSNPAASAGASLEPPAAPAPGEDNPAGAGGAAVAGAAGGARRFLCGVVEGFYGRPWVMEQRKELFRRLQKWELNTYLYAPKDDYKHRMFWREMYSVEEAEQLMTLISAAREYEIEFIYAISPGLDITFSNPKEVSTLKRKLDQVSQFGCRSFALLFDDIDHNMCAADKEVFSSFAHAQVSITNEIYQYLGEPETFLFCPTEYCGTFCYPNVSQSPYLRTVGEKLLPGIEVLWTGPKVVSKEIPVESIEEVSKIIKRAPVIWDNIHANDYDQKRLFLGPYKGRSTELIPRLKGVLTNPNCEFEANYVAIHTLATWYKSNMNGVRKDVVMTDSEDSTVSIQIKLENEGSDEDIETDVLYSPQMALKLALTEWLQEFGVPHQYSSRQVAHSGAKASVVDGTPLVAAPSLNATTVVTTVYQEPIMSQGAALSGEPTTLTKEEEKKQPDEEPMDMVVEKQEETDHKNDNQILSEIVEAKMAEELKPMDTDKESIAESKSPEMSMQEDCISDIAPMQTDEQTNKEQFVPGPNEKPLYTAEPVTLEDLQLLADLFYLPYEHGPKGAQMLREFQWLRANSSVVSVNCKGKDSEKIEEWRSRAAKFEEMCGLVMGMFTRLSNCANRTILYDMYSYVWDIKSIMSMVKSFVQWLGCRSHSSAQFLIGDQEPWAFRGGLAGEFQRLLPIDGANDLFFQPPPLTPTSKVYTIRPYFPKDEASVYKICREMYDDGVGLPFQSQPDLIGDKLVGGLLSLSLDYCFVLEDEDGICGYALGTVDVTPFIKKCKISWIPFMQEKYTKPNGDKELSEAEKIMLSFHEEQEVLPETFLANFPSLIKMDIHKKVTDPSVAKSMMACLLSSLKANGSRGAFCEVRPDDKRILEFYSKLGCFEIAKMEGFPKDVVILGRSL
protocol-notes: OGA biochemical assay: inhibition of FM-GlcNAc hydrolysis, fluorescence; protocol A (10 nM OGA, 1 h) or protocol B (2 nM OGA, 6 h)
condition-context: Enzymatic protocol B (2 nM OGA, 6 h)
Numeric answer only, unit % assumed.

Record excerpt, results attached:
{"compound": "CC(=O)Nc1ncc(CN2CCCC(c3cc(C)nc(C)c3)C2)s1 (single isomer, unassigned) [compound 131]", "assay-metric": "Enzymatic Emax (%)", "measurement-unit": "%", "quantitative-result": 85.38}
{"compound": "CC(=O)Nc1ncc(CN2CCC(Cc3ccc(C(F)(F)F)nn3)C2)s1 (stereo not shown) [compound 65]", "assay-metric": "Enzymatic Emax (%)", "measurement-unit": "%", "quantitative-result": 100}
{"compound": "CC(=O)Nc1ncc(CN2CC[C@H](Cc3ccc(C)nc3C#N)C2)s1 [compound 84]", "assay-metric": "Enzymatic Emax (%)", "measurement-unit": "%", "quantitative-result": 102.6}
{"compound": "CC(=O)Nc1ncc([C@@H](C)N2CCC[C@@H](COc3cc(C)nc(C)c3)C2)s1 (single isomer, unassigned) [compound 137]", "assay-metric": "Enzymatic Emax (%)", "measurement-unit": "%", "quantitative-result": 102.2}
{"compound": "CC(=O)Nc1ncc(CN2CCC(Cc3ncc(F)cc3F)C2)s1 (stereo not shown) [compound 75]", "assay-metric": "Enzymatic Emax (%)", "measurement-unit": "%", "quantitative-result": 99.3}
{"compound": "CC(=O)Nc1ncc(CN2CCC(Cc3cc(C(F)(F)F)ccn3)C2)s1 (stereo not shown) [compound 53]", "assay-metric": "Enzymatic Emax (%)", "measurement-unit": "%", "quantitative-result": 99.4}
{"compound": "CC(=O)Nc1ncc(CN2CCC(Cc3cnc(C#N)cn3)C2)s1 (stereo not shown) [compound 91]", "assay-metric": "Enzymatic Emax (%)", "measurement-unit": "%", "quantitative-result": 102}
{"compound": "CC(=O)Nc1ncc(CN2CC[C@H](Cc3cnc(C)nc3)C2)s1 [compound 62]", "assay-metric": "Enzymatic Emax (%)", "measurement-unit": "%", "quantitative-result": 102.4}

Turning now to a further compound:
Enquiry: Answer with reported Enzymatic Emax (%) of CCc1cc(C[C@H]2CCN(Cc3cnc(NC(C)=O)s3)C2)cc(C)n1.Cl [compound 80]
Return: 101.5

###

target-of-assay: recombinant human Meningioma Expressed Antigen 5 (MGEA5), also referred to as O-GlcNAcase (OGA) (Homo sapiens, UniProt O60502)
Construct: Full length OGA enzyme was purchased at OriGene (cat # TP322411); purchased OriGene TP322411
protocol-notes: OGA biochemical assay: inhibition of FM-GlcNAc hydrolysis, fluorescence; protocol A (10 nM OGA, 1 h) or protocol B (2 nM OGA, 6 h)
condition-context: Enzymatic protocol B (2 nM OGA, 6 h); read-out: Enzymatic hOGA; pIC50 (converted)
# IC50 binned as bin 1 = under 5 nM, bin 2 = from 5 nM up to 60 nM, bin 3 = 60 nM and over

Known results for molecules:
{"molecule": "Cc1cc(C[C@H]2CCCN(Cc3ccc4c(c3)OCO4)C2)cc(C)n1 [compound 146]", "cat": "bin 3"}
{"molecule": "CC(=O)Nc1ncc(CN2CC[C@H](Cc3cc(C)cc(C)n3)C2)s1 [compound 85]", "cat": "bin 2"}
{"molecule": "CC(=O)Nc1ncc(CN2CCCC(c3cc(C)nc(C)c3)C2)s1 (centres unmarked) [compound 7]", "cat": "bin 2"}
{"molecule": "CC(=O)Nc1ncc(CN2CCC(COc3cc(C)nc(C)c3)C2)s1 (centres unmarked) [compound 89]", "cat": "bin 2"}
{"molecule": "CC(=O)Nc1ncc(CN2CCC[C@H](Oc3ccnc(C)c3)C2)s1 (racemic) [compound 17]", "cat": "bin 3"}

Enquiry: In plain terms, what class is CC(=O)Nc1ncc(CN2CC[C@@H](Cc3cc(C)nc(C)c3)C2)s1 [compound 113] ?
Return: bin 1

Enquiry: In plain terms, what class is CC(=O)Nc1ncc(CN2CC[C@H](Cc3ccc(OC(F)(F)F)cn3)C2)s1 [compound 49] ?
Return: bin 3

Enquiry: In plain terms, what class is Cc1cc(CC2CCCN(C(C)c3ccc4sc(C)nc4c3)C2)cc(C)n1 (single isomer, unassigned) [compound 119] ?
Return: bin 1

Enquiry: In plain terms, what class is CC(=O)Nc1ncc(CN2CCCC(Nc3cc(C)nc(C)c3)C2)s1 (centres unmarked) [compound 31] ?
Return: bin 1

Enquiry: In plain terms, what class is CC(=O)Nc1ncc(CN2CCC[C@@H](Cc3cc(C)nc(C)n3)C2)s1 (single isomer, unassigned) [compound 26] ?
Return: bin 2

Enquiry: In plain terms, what class is CC(=O)Nc1ncc(CN2CCC[C@H](Cc3ccc(C)nc3C#N)C2)s1 [compound 125] ?
Return: bin 1

Enquiry: In plain terms, what class is CC(=O)Nc1ncc(CN2CCC[C@@H](Nc3cc(C)nc(C)c3)C2)s1 [compound 8] ?
Return: bin 2

Enquiry: In plain terms, what class is CC(=O)Nc1ncc(CN2CCC(OCc3cc(C)nc(C)c3)C2)s1 (centres unmarked) [compound 81] ?
Return: bin 3

Enquiry: In plain terms, what class is CC(=O)Nc1ncc(CN2CCC[C@H](Cc3cc(C)nc(F)c3)C2)s1 [compound 123] ?
Return: bin 1

Enquiry: In plain terms, what class is CC(=O)Nc1ncc(CN2CCC[C@H](Cc3cc(C)nc(C)c3)[C@@H]2C)s1 (single isomer, unassigned) [compound 171] ?
Return: bin 3

Enquiry: In plain terms, what class is CC(=O)Nc1ncc(CN2CCC(F)(F)C(COc3cc(C)nc(C)n3)C2)s1 (centres unmarked) [compound 162] ?
Return: bin 3

###

target-of-assay: recombinant human Meningioma Expressed Antigen 5 (MGEA5), also referred to as O-GlcNAcase (OGA) (Homo sapiens, UniProt O60502)
Construct: Full length OGA enzyme was purchased at OriGene (cat # TP322411); purchased OriGene TP322411
protocol-notes: OGA biochemical assay: inhibition of FM-GlcNAc hydrolysis, fluorescence; protocol A (10 nM OGA, 1 h) or protocol B (2 nM OGA, 6 h)
condition-context: Enzymatic protocol B (2 nM OGA, 6 h)
Mark t for reported Enzymatic hOGA; pIC50 of 8 or greater; mark f for anything smaller.

{"molecule": "CC(=O)Nc1ncc(CN2CC[C@H](Cc3ccc(C)nc3)C2)s1", "cat": "f"}
{"molecule": "CC(=O)Nc1ncc(CN2CCC(Cc3cc(C(F)(F)F)cc(C)n3)C2)s1 (centres unmarked)", "cat": "f"}
{"molecule": "Cc1cc(C[C@H]2CCN(Cc3ccc4c(c3)OCO4)C2)cc(C)n1", "cat": "f"}
{"molecule": "COc1nccnc1CC1CCN(Cc2cnc(NC(C)=O)s2)C1 (centres unmarked)", "cat": "f"}
{"molecule": "CC(=O)Nc1ncc(CN2CCC(Cc3cnc(C)c(C)n3)C2)s1 (centres unmarked)", "cat": "t"}

Now consider the entry below.
Enquiry: Given CC(=O)Nc1ncc(CN2CCC(Cc3ccc(C(F)(F)F)nn3)C2)s1 (centres unmarked) , state whether its Enzymatic hOGA; pIC50 is at least 8.
Return: f

###

target-of-assay: recombinant human Meningioma Expressed Antigen 5 (MGEA5), also referred to as O-GlcNAcase (OGA) (Homo sapiens)
Construct: Full length OGA enzyme was purchased at OriGene (cat # TP322411); purchased OriGene TP322411
protocol-notes: OGA biochemical assay: inhibition of FM-GlcNAc hydrolysis, fluorescence; protocol A (10 nM OGA, 1 h) or protocol B (2 nM OGA, 6 h)
condition-context: Enzymatic protocol B (2 nM OGA, 6 h)
assay-metric: Emax (%)
Numeric answer only, unit % assumed.

Record excerpt, results attached:
{"compound": "COc1nc(C)ccc1CC1CCN(Cc2cnc(NC(C)=O)s2)C1 (centres unmarked) [compound 109]", "measurement-unit": "%", "quantitative-result": 103}
{"compound": "CC(=O)Nc1ncc(CN2CCC[C@H](Cc3ccc(C)nc3C#N)C2)s1 [compound 125]", "measurement-unit": "%", "quantitative-result": 100}
{"compound": "CC(=O)Nc1ncc(CN2CCC(Cc3cc(C)nc(C)c3)C2)s1 (centres unmarked) [compound 30]", "measurement-unit": "%", "quantitative-result": 124}

Enquiry: Answer with reported Emax of CC(=O)Nc1ncc(CN2CC[C@H](Cc3ccc(C(F)F)cn3)C2)s1 [compound 50]
Return: 99.4

Enquiry: Answer with reported Emax of CC(=O)Nc1ncc(CN2CCC(Cc3cccc(C(C)C)n3)C2)s1 (centres unmarked) [compound 40]
Return: 99.7

Enquiry: Answer with reported Emax of CC(=O)Nc1ncc(CN2CCC(F)(F)C(COc3cc(C)nc(C)n3)C2)s1 (centres unmarked) [compound 162]
Return: 91

Enquiry: Answer with reported Emax of CC(=O)Nc1ncc(S(=O)(=O)N2CCC(c3ccc(C)nc3)C2)s1 (centres unmarked) [compound 4]
Return: 50.5

Enquiry: Answer with reported Emax of Cc1cc(N[C@@H]2CCCN(Cc3ccc4nccnc4c3)C2)cc(C)n1 [compound 10]
Return: 85.6
